- protocol-summary: Pharmacokinetic study after single dose in C57BL/6N mice
- Type: in vivo, mouse
- condition-notes: male, C57BL/6N, mouse, po; Plasma, 10 mg/kg
experimental-readout: half-life (h)
Numbers only, in h.

Indicate its recorded half-life; the compound in question is NC(=O)c1cc(Cn2cc(-c3c(-c4ccc(Cl)cc4)nc4cc(F)ccn34)nn2)ccc1Cl [MI-883]
2.83

---

- protocol-summary: Metabolic stability in mouse liver S9 fraction
- condition-notes: male, CD-1, mouse, s9
experimental-readout: microsomal CLint (µL/min/mg)
Give bare numbers, in µL/min/mg.

Supply microsomal CLint value. Item: Cc1ncc2n1-c1ccc(Cl)cc1C(c1ccccc1F)=NC2
113
